- TESTED_TARGET: human C5 protein (human, UniProt P01031 19-673; P01031 678-1676)
- RUN_DESCRIPTION: cell-based or functional assay
Positions of bridges follow the written chain, without caps; N, C: chain ends. Non-standard residues stand in square brackets, D forms with d. Primed or numbered codes have the meaning given here. No end group written: not given here. mXylyl″ = bridging moiety between the two marked residues; mXylyl = bridging moiety between residues (mXylyl(i,j)); Trp(7-aza) = N[C@@H](Cc1c[nH]c2ncccc12)C(=O)O; mXylyl(4) = bridging moiety between residues; Trp(1-Me) = Cn1cc(C[C@H](N)C(=O)O)c2ccccc21; NMeD = CN[C@@H](CC(=O)O)C(=O)O; Chg = N[C@H](C(=O)O)C1CCCCC1; Phg = N[C@H](C(=O)O)c1ccccc1; Tle = CC(C)(C)[C@H](N)C(=O)O; NMeS = CN[C@@H](CO)C(=O)O; Nva = CCC[C@H](N)C(=O)O
MEASUREMENT_NAME: Avg. IC50, human hemolysis assay (complete human sera)

Answered examples (8):
# BINDER, OBSERVED
rows = [
    ("Ac-[Nva]C[Phg]T[Trp(7-aza)]EY[NMeS]HCA-NH2 (linker 2-10 via mXylyl) [R3039]", "240 nM"),
    ("Ac-[Nva]C[Phg]T[Trp(7-aza)]EY[NMeS][dA]C[Nva]-NH2 (linker 2-10 via mXylyl″) [R3135]", "> 25000 nM"),
    ("Ac-[Nva]C[Phg]T[Trp(7-aza)]EF[NMeS]AC[Nva]-NH2 (linker 2-10 via mXylyl(4)) [R3100]", "626 nM"),
    ("Ac-[Nva]C[Phg]T[Trp(1-Me)]EY[NMeS]AC[Nva]-NH2 (linker 2-10 via mXylyl(4)) [R3109]", "> 100000 nM"),
    ("Ac-[Nva]C[Phg]A[Trp(7-aza)]EY[NMeS]HC[Nva]-NH2 (linker 2-10 via mXylyl) [R3033]", "131 nM"),
    ("MCVERFCDVY-NH2 (linker 2-7 via mXylyl) [R3045]", "> 100000 nM"),
    ("Ac-[Nva]CAT[Trp(7-aza)]EY[NMeS]HC[Nva]-NH2 (linker 2-10 via mXylyl) [R3032]", "> 10000 nM"),
    ("Ac-CVERFC[NMeD][Tle]Y[Trp(7-aza)]EYP[Chg][Nva]-NH2 (linker 1-6 via mXylyl″) [R3172]", "12 nM"),
]

I'd like to know its Avg. IC50, human hemolysis assay (complete human sera). The binder in question is Ac-[Nva]C[Phg]T[Trp(7-aza)]EY[NMeS]HC[Nva]P[Nva]-NH2 (linker 2-10 via mXylyl) [R3008] 97 nM

Tell me the measured Avg. IC50, human hemolysis assay (complete human sera) of Ac-C[Phg]T[Trp(7-aza)]EY[NMeS]HC[Nva]P[Nva]-NH2 (linker 1-9 via mXylyl) [R3014] , please. 1420 nM

Taken from patent US11535650.
